assay procedure: NCI Yeast Anticancer Drug Screen. Data for the sgs1 mgt1 strain (AID 161)
protocol conditions: S. cerevisiae sgs1 mgt1 strain, at 50.0 µM, stronger effect = higher value
Compounds without any hit were thinned out: in the full panel of roughly 79,000, 15% have a hit.
I would appreciate it if you labelled entries yes when growth inhibition is 20% or higher, otherwise no.

stdin: Given O=C(O)c1cc[c]([Hg][S]c2ncnc3nc[nH]c23)cc1 , state whether its growth inhibition is at least 20%.
stdout: yes

stdin: Please tell me: is the molecule NC(N)=NCCCCCCCCCCN=C(N)N at or over 20% in terms of growth inhibition?
stdout: no

stdin: Does growth inhibition meet or surpass 20% for CCC[CH2][Sn]([I])([CH2]I)[CH2]CCC ?
stdout: yes

stdin: Check if growth inhibition >= 20% (inclusive). Item: Cn1c(=O)c2ncnnc2n(C)c1=O
stdout: yes

stdin: Form field: growth inhibition at least 20%? Entry: C/C=C/c1cc2n(c1)C(=O)c1cc(OC3OC(C)C(NC)C(C)(O)C3O)c(C)c(O)c1NC2O (configuration not stated)
stdout: yes

stdin: Quick check: does Cc1ccc(CI)cc1 have growth inhibition greater than or equal to 20%?
stdout: no

stdin: State whether the measured growth inhibition reaches 20%, counting equality as reaching it, for O=C(O)c1ccc([As](=O)(O)O)cc1[N+](=O)[O-]
stdout: no
